- experimental.system: T1, huIL-18Rβ-HisAvi (human, UniProt O95256 20-356, biotinylated in the Octet blocking assay)
- T1 construct: Soluble analyte in all SPR runs; captured on streptavidin sensors in the Octet assay; also called human IL-18Rβ; human IL-18Rβ-Avi-His
- T1 sequence: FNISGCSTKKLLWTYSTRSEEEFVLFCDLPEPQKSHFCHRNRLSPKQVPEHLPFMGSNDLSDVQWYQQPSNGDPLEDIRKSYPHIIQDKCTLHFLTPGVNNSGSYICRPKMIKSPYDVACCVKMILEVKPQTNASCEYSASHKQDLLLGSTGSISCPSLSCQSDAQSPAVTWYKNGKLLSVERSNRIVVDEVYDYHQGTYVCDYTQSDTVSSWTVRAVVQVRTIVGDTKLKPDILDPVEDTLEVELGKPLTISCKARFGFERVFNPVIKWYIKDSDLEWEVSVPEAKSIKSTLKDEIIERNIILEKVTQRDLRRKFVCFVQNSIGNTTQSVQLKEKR
- experiment.notes: SPR T200, mAb on anti-hFc, 37C, pH 6
measurement.name: pKd
# pKd: negative log10 of molar concentration; output just the value

# binder, pKd
rows = [
    ("P20-V2 (antibody, human IgG1, kappa, V domains shown, Variant of P20) VH: QVQLQESGPGLVKPSETLSLTCTVSGGSINNYYWSWIRQPPGKGLEWIGYIFYSGTTNYNPSLKSRVTISVDTSKNQFSLKLSSVTAADTAVYYCARDVGIAARNSYYYVMDVWGQGTTVTVSS VL: AIQLTQSPSSLSASVGDRVTITCRASQGISSALAWYQQKPGKAPKFLIYEGSSLESGVPSRFSGSGSGTDFTLTISSLQPEDFATYYCQQFNSYPITFGQGTRLEIKR", 9.54),
]

# pKd of P21 (antibody, human IgG1, kappa, V domains shown, Human IgG) VH: QVQLQQSGPGLVKPSETLSLTCTVSGGSISNYYWTWIRQPPGKGLEWIGYISDSGSTNYNPSLKSRVTISVDTSKNQFSLKLSSVTAADTAVYYCARETIVVRGFYFYVMDVWGQGTTVTVSS VL: AIQLTQSPSSLSASVGDRVTITCRASQGISSALAWYQQRPGKAPKLLIYDASNWESGVPSRFSGSGSGTDFTLTISSLQPEDFATYYCQQFNSYPWTFGQGTKVEIKR = 9.19

# pKd of P20-V3 (antibody, human IgG1, kappa, V domains shown, Variant of P20) VH: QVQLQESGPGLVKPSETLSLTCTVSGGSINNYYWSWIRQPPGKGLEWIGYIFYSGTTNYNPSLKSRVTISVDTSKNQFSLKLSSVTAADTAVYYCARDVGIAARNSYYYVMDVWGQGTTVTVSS VL: AIQLTQSPSSLSASVGDRVTITCRASQGISSALAWYQQKPGKAPKFLIYGASSLESGVPSRFSGSGSGTDFTLTISSLQPEDFATYYCQQFNSYPITFGQGTRLEIKR = 9.44

Lab note: measured pKd of P20-V1 (antibody, human IgG1, kappa, V domains shown, Variant of P20) VH: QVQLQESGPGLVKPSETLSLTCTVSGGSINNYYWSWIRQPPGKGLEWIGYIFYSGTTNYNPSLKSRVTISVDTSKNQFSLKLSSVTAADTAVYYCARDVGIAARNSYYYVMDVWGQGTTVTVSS VL: AIQLTQSPSSLSASVGDRVTITCRASQGISSALAWYQQKPGKAPKFLIYEASSLESGVPSRFSGSGSGTDFTLTISSLQPEDFATYYCQQFNSYPITFGQGTRLEIKR was 9.35

Hey, just so you know, these numbers are from patent US20250230251A1.
